# assayed system: UniProtKB P29120
# Sequence (P29120 whole entry): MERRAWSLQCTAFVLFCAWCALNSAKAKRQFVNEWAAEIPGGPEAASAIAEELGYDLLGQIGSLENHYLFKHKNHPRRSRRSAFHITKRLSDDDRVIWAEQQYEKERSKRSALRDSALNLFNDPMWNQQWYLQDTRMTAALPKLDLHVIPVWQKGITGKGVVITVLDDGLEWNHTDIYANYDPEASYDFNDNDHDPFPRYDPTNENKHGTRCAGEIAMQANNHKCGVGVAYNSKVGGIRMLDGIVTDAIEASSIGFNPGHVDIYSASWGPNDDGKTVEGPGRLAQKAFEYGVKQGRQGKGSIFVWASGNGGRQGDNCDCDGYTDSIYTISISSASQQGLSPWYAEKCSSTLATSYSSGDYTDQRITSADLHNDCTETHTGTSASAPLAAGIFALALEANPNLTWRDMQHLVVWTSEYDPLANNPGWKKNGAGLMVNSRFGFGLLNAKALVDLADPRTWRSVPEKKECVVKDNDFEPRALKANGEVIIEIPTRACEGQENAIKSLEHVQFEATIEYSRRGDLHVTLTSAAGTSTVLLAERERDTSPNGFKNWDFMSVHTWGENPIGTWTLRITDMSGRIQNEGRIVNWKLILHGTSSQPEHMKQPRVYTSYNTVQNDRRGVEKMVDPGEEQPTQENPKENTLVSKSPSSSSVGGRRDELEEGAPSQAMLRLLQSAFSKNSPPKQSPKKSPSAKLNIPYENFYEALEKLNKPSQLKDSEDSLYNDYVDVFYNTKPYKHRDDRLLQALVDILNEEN
Residues, ends and D or L forms follow the SMILES beside them. *: point of attachment. Agmatine = N=C(N)NCCCCN*; PhAc = O=C(Cc1ccccc1)*
measurement kind: Ki (nM)
Expressed in nM, but write only the number.

Examples from the recorded data:
# compound, assayed system, measurement kind, measured result
records = [
    ("CC(C)[C@H](NC(=O)[C@H](CCCNC(=N)N)NC(=O)Cc1ccccc1)C(=O)N[C@@H](CCCNC(=N)N)C(=O)NCC1CCN(C(=N)N)CC1", "UniProtKB P29120", "Ki", 70),
    ("CC(=O)N[C@@H](CCCNC(=N)N)C(=O)N[C@H](C(=O)N[C@@H](CCCNC(=N)N)C(=O)NCc1ccc(C(=N)N)cc1)C(C)C", "UniProtKB P29120", "Ki", 1.7),
    ("CC(C)[C@H](NC(=O)[C@H](CCCNC(=N)N)NC(=O)Cc1ccccc1)C(=O)N[C@@H](CCCNC(=N)N)C(=O)NCc1ccc(C(=N)N)cc1", "UniProtKB P29120", "Ki", 0.75),
    ("CCCCCCCCCC(=O)N[C@@H](CCCN=C(N)N)C(=O)N[C@H](C(=O)N[C@@H](CCCN=C(N)N)C(=O)NCc1ccc(C(=N)N)cc1)C(C)C", "UniProtKB P29120", "Ki", 3.65),
]

Given CC(C)[C@H](NC(=O)[C@H](CCCNC(=N)N)NC(=O)Cc1ccccc1)C(=O)N[C@@H](CCCNC(=N)N)C(=O)NCCCCNC(=N)N (PhAc-Arg-Val-Arg-Agmatine) , state its recorded Ki.
53
